read-out: Interferon-gamma inducible Protein 10 (IP10), CXCL10 (gene 3627); test: BSK_KF3CT_IP10: BioMAP Diversity Plus: KF3CT Assay for Interferon-gamma inducible Protein 10 (IP10) Biomarker Activity (AID 2283068); conditions: primary human keratinocytes with fibroblasts; actives raise or lower the signal
Activity calls are given as the source filed them. The calls were made as follows: active = hit-call score of the fitted dose curve at least 0.9, where 1 is the maximum; inactive = score below 0.9.
Answer with one of the outcomes given here: active, inactive

Previously resolved entries follow.
- Compound: "CCN(CC)C(=O)C(Cl)=C(C)OP(=O)(OC)OC"
  Discrete Label: "inactive"
- Compound: "CCCCCCCCCCCCN(C)C"
  Discrete Label: "inactive"
- Compound: "c1ccc2sc(SNC3CCCCC3)nc2c1"
  Discrete Label: "inactive"
- Compound: "CCOP(=O)(OCC)SCCSCC"
  Discrete Label: "inactive"
- Compound: "CCCCCCCCCCCCc1cccc(S(=O)(=O)O)c1"
  Discrete Label: "active"

I'd appreciate the recorded outcome for Cc1c([N+](=O)[O-])c(C)c([N+](=O)[O-])c(C(C)(C)C)c1[N+](=O)[O-] from this test.
active

###

read-out: Plasminogen activator inhibitor-1 (PAI1), SERPINE1 (gene 5054); experiment: BSK_BE3C_PAI1: BioMAP Diversity Plus: BE3C Assay for Plasminogen activator inhibitor-1 (PAI1) Biomarker Activity (AID 2283037); conditions: primary human bronchial epithelial cells; actives raise or lower the signal
Calls of active or inactive are those of the source. The calls were made as follows: active = hit-call score of the fitted dose curve at least 0.9, where 1 is the maximum; inactive = score below 0.9.
Answer with one of the outcomes given here: True (active), False (inactive)

Previously resolved entries follow.
- Mol Smiles: "CCCCCCCCCCCCc1cccc(S(=O)(=O)O)c1"
  Discrete Label: "True"
- Mol Smiles: "O=S(=O)(c1ccc(Cl)cc1)c1cc(Cl)c(Cl)cc1Cl"
  Discrete Label: "False"

I'd appreciate the recorded outcome for CCOP(=O)(OCC)SCCSCC from this test.
False

I'd appreciate the recorded outcome for Cc1cc(C(C)(C)c2ccc(O)c(C)c2)ccc1O from this test.
True

I'd appreciate the recorded outcome for O=C(Cc1ccccc1)OCCc1ccccc1 from this test.
False

I'd appreciate the recorded outcome for Cc1ccccc1OP(=O)(Oc1ccccc1)Oc1ccccc1 from this test.
False

I'd appreciate the recorded outcome for Cc1cc(C)cc(C)c1 from this test.
False

###

read-out: C-C motif chemokine 2 (Homo sapiens); test: BSK_KF3CT_MCP1: BioMAP Diversity Plus: KF3CT Assay for Monocyte Chemoattractant Protein 1 (MCP1/CCL2) Biomarker Activity (AID 2283073); settings: primary human keratinocytes with fibroblasts; actives raise or lower the signal
Calls of active or inactive are those of the source. Rule for the calls: active = hit-call score of the fitted dose curve at least 0.9, where 1 is the maximum; inactive = score below 0.9.
Property Label: AC50

Examples from the recorded data:
- Compound: "Cc1c([N+](=O)[O-])c(C)c([N+](=O)[O-])c(C(C)(C)C)c1[N+](=O)[O-]"
  AC50: "34 µM (active)"
- Compound: "CC1(C)[C@H](C(=O)O[C@H](C#N)c2cccc(Oc3ccccc3)c2)[C@@H]1/C=C(\\Cl)C(F)(F)F"
  AC50: "inactive"
- Compound: "Oc1c(Br)cc(Br)cc1Br"
  AC50: "inactive"
- Compound: "NC(=O)CCl"
  AC50: "inactive"
- Compound: "CC(C=O)Cc1ccc2c(c1)OCO2 (stereo unspecified)"
  AC50: "inactive"

Looking up c1ccc(-c2cccc(-c3ccccc3)c2)cc1 , I see its AC50 listed as inactive

###

assay: CCTE_Shafer_MEA_acute_spike_number: CCTE's Neural Acute Assay for Total Number of Spikes, Shafer Lab (AID 2284008)
Calls of active or inactive are those of the source. Rule for the calls: active = hit-call score of the fitted dose curve at least 0.9, where 1 is the maximum; inactive = score below 0.9.
Answer with one of the outcomes given here: TRUE = active, FALSE = inactive

I'd appreciate the recorded outcome for Cc1ccccc1OP(=O)(Oc1ccccc1C)Oc1ccccc1C from this test.
TRUE

I'd appreciate the recorded outcome for CN(C)C(=S)S from this test.
FALSE

I'd appreciate the recorded outcome for CC(C)[C@@H](Nc1ccc(C(F)(F)F)cc1Cl)C(=O)OC(C#N)c1cccc(Oc2ccccc2)c1 (stereo partly specified) from this test.
TRUE

I'd appreciate the recorded outcome for O=C(Cc1ccccc1)OCCc1ccccc1 from this test.
TRUE

I'd appreciate the recorded outcome for CS(=O)(=O)c1ccc(C(=O)C2C(=O)CCCC2=O)c(Cl)c1COCC(F)(F)F from this test.
FALSE

I'd appreciate the recorded outcome for CC(C)(C)c1ccccc1O from this test.
TRUE

Values from PubChem BioAssay (EPA / NIEHS)
